// provenance: PubChem BioAssay

target: Mitogen-activated protein kinase 7 (Homo sapiens) (UniProt Q13164); experiment: ERK5 transactivation activators in reporter cells, primary screen, cell-based, HTS (AID 1508626); details: HeLa Gal4-ERK5 transactivation, 18 h, at 5 µM, stronger effect = higher value;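 note: luciferase driven by Gal4-ERK5 fusion binding five Gal4 sites before minimal TATA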
Sequence (Q13164 whole entry, looked up, the tested form may be a part): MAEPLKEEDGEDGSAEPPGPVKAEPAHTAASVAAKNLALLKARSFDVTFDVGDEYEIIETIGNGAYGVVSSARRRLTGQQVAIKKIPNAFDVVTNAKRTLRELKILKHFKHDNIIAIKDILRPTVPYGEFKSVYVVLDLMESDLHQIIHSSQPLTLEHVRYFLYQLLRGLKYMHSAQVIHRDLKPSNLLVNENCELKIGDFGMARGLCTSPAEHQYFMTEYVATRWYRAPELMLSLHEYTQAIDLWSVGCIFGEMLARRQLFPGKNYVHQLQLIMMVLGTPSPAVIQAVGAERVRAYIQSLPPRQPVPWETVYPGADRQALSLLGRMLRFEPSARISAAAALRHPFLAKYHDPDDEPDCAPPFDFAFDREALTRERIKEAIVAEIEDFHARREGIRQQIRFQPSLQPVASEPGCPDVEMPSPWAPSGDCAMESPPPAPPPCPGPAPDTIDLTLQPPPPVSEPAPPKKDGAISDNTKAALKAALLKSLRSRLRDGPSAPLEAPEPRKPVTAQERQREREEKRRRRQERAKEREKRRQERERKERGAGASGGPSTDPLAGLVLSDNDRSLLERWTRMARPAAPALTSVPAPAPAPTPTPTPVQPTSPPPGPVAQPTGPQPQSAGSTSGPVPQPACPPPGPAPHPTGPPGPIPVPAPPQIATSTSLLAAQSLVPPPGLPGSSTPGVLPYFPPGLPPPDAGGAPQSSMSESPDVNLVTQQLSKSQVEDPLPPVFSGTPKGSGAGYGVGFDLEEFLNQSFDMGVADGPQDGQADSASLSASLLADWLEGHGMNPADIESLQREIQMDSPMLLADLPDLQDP
Calls of active or inactive are those of the source.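 Rule for the calls: active = luciferase signal above three times the same-plate solvent-only control wells; inactive = the rest.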
EXPERIMENTAL_READOUT: luciferase signal

[
  {
    "MOLECULE": "O=C1C=CC(=O)c2c(O)c(Cl)c(Cl)c(O)c21",
    "OBSERVED_VALUE": "12 AU (inactive)"
  },
  {
    "MOLECULE": "C[C@H]1O[C@H](O[C@H]2[C@H](O)[C@@H](O)[C@@H](O[C@H]3[C@H](O)[C@@H](O)C(O)O[C@@H]3CO)O[C@@H]2CO)[C@H](O)[C@@H](O)[C@@H]1N[C@H]1C=C(CO)[C@@H](O)[C@H](O)[C@H]1O (some centres undefined)",
    "OBSERVED_VALUE": "52 AU (inactive)"
  },
  {
    "MOLECULE": "O=C(CNC(=O)c1ccc(Cl)cc1)NO",
    "OBSERVED_VALUE": "60 AU (inactive)"
  },
  {
    "MOLECULE": "C/C1=C/CC(C)(C)/C=C/C/C(C)=C/CC1",
    "OBSERVED_VALUE": "60 AU (inactive)"
  }
]

====

experiment: ovarian cancer cell viability with rucaparib, profiling panel, oncology-focused library, rucaparib conditional (AID 1508598); conditions: patient-derived ovarian cancer cells, CellTiter-Glo viability, 144 h; at 0.00488 µM; OCI-C5x cells; with rucaparib 10 µM; stronger effect = lower value; 100% = cells with rucaparib alone
EXPERIMENTAL_READOUT: viability (%)

[
  {
    "COMPOUND": "O=C(c1ccc(OCCN2CCCCC2)cc1)c1c(-c2ccc(O)cc2)sc2cc(O)ccc12",
    "EXPERIMENTAL_READOUT": "viability",
    "OUTPUT_UNIT": "%",
    "OBSERVED_VALUE": 131
  },
  {
    "COMPOUND": "Cn1cc(C2=C(c3ccc(Cl)cc3Cl)C(=O)NC2=O)c2ccccc21",
    "EXPERIMENTAL_READOUT": "viability",
    "OUTPUT_UNIT": "%",
    "OBSERVED_VALUE": 117
  },
  {
    "COMPOUND": "CS(=O)c1ccc(-c2nc(-c3ccc(F)cc3)c(-c3ccncc3)[nH]2)cc1 (stereo not drawn)",
    "EXPERIMENTAL_READOUT": "viability",
    "OUTPUT_UNIT": "%",
    "OBSERVED_VALUE": 134
  }
]

====

A collection of compounds and their measured fold change
test: sensitizers of A549 cells to miR-34 induction, primary screen, imaging, A549 dox-inducible miR-34, nuclei and caspase counts (AID 1347080); settings: A549 miR-34 inducible, Hoechst nuclei count, 48 h; measured here: relative caspase fold change +Dox/-Dox
EXPERIMENTAL_READOUT: fold change

[
  {
    "COMPOUND": "CCC1(C)OC(=O)N(C)C1=O (centres undefined)",
    "OBSERVED_VALUE": 0.865
  },
  {
    "COMPOUND": "C[n+]1ccccc1C=NO",
    "OBSERVED_VALUE": 4.73
  },
  {
    "COMPOUND": "CCCC1O[C@@H]2CC3C4CCC5=CC(=O)C=CC5(C)C4[C@@H](O)CC3(C)[C@]2(C(=O)CO)O1 (some centres undefined)",
    "OBSERVED_VALUE": 1.29
  },
  {
    "COMPOUND": "O=C(O)c1ccccc1-c1c2cc(I)c(=O)c(I)c-2oc2c(I)c(O)c(I)cc12",
    "OBSERVED_VALUE": 0.976
  },
  {
    "COMPOUND": "C[C@]12C=CC(=O)C=C1CCC1C2[C@@H](O)C[C@@]2(C)C1CC[C@]2(O)C(=O)CO (some centres undefined)",
    "OBSERVED_VALUE": 2.13
  },
  {
    "COMPOUND": "CN[C@@H]1[C@H](OC2[C@H](O[C@H]3[C@H](O)[C@@H](O)[C@H](N=C(N)N)[C@@H](O)[C@@H]3N=C(N)N)O[C@@H](C)[C@]2(O)C=O)O[C@@H](CO)[C@H](O)[C@H]1O (some centres undefined)",
    "OBSERVED_VALUE": 2.64
  },
  {
    "COMPOUND": "C#C[C@]1(O)CC[C@H]2[C@@H]3CCC4=Cc5oncc5CC4(C)[C@H]3CCC21C (some centres undefined)",
    "OBSERVED_VALUE": 1.79
  },
  {
    "COMPOUND": "C[C@]12CCC(=O)C=C1C=CC1C2CC[C@@]2(C)C1CC[C@@]21CCC(=O)O1 (some centres undefined)",
    "OBSERVED_VALUE": 1.44
  },
  {
    "COMPOUND": "COc1cc([C@@H]2c3cc4c(cc3[C@H](O)C3COC(=O)[C@@H]32)OCO4)cc(OC)c1OC (some centres undefined)",
    "OBSERVED_VALUE": 1.04
  }
]

====

test: sensitizers of A549 cells to miR-34 induction, primary screen, imaging, A549 dox-inducible miR-34, nuclei and caspase counts (AID 1347080); details: A549 miR-34 inducible, Hoechst nuclei count, 48 h; stronger effect = lower value; cell number ratio, induced over uninduced
MET if fold change is below 0.9. NOT MET if not; exact matches included in NOT MET.

[
  {
    "COMPOUND": "COc1ccc(C[C@H](C)NC[C@@H](O)c2ccc(O)c(NC=O)c2)cc1",
    "CLASS": "NOT MET"
  },
  {
    "COMPOUND": "CC1(C)S[C@@H]2[C@H](NC(=O)[C@H](C(=O)O)c3cccs3)C(=O)N2[C@H]1C(=O)O",
    "CLASS": "NOT MET"
  },
  {
    "COMPOUND": "CCC[C@@H]1C[C@@H](C(=O)N[C@H]([C@H]2O[C@H](SC)[C@H](O)[C@@H](O)[C@H]2O)[C@H](C)O)N(C)C1",
    "CLASS": "NOT MET"
  },
  {
    "COMPOUND": "CC(=O)[C@@]1(O)CCC2C3C[C@H](C)C4=CC(=O)C=CC4(C)[C@@]3(F)[C@@H](O)C[C@@]21C (stereo not given in full)",
    "CLASS": "MET"
  },
  {
    "COMPOUND": "O=C(O)Cc1ccc([N+](=O)[O-])cc1",
    "CLASS": "MET"
  },
  {
    "COMPOUND": "COC1CC2CCC(C)C(O)(O2)C(=O)C(=O)N2CCCCC2C(=O)OC(C(C)CC2CCC(O)C(OC)C2)CC(=O)C(C)/C=C(\\C)C(O)C(OC)C(=O)C(C)CC(C)/C=C/C=C/C=C/1C (stereo not given)",
    "CLASS": "MET"
  },
  {
    "COMPOUND": "Nc1nc(F)nc2c1ncn2[C@@H]1O[C@H](COP(=O)(O)O)[C@@H](O)[C@@H]1O",
    "CLASS": "NOT MET"
  },
  {
    "COMPOUND": "Nc1nc(NC2CC2)c2ncn(C3C=C[C@@H](CO)C3)c2n1 (stereo not given in full)",
    "CLASS": "NOT MET"
  },
  {
    "COMPOUND": "CC12CCC3c4ccc(O)cc4CCC3C1C[C@H](O)[C@@H]2O (stereo not given in full)",
    "CLASS": "NOT MET"
  },
  {
    "COMPOUND": "O=C(N[C@@H](CO)[C@H](O)c1ccc([N+](=O)[O-])cc1)C(Cl)Cl",
    "CLASS": "NOT MET"
  },
  {
    "COMPOUND": "O=c1[nH]nc(Sc2ncc([N+](=O)[O-])s2)n1-c1ccc2c(c1)OCCO2",
    "CLASS": "NOT MET"
  }
]

====

experiment: inhibition of 3D7 malaria parasite growth – strain 3D7 (AID 2306);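 note: 0% = DMSO wells and 100% = chloroquine plus artemisinin control wells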; settings: P. falciparum 3D7 erythrocytic growth, LDH absorbance, 72 h; at 2 µM; stronger effect = higher value

[
  {
    "MOLECULE": "CCC(C(C)C)n1ccc2c3c(N)nc(N)nc3ccc21 (stereo not given)",
    "growth inhibition [%]": 95
  },
  {
    "MOLECULE": "CN1CCN(CCCN(Cc2ccc(-c3cccc(CNCc4ccc5c(c4)OCO5)c3)cc2)C(=O)CCC2CCCC2)CC1",
    "growth inhibition [%]": 92
  },
  {
    "MOLECULE": "COc1cccc(CNCC(C)(C)c2nc(-c3ccc(Cl)c(O)c3)c(-c3ccncc3)[nH]2)c1",
    "growth inhibition [%]": 101
  },
  {
    "MOLECULE": "COc1ccc(CNCc2ccc(-c3cccc(-c4nc5ccccc5[nH]4)c3)cc2)cc1",
    "growth inhibition [%]": 101
  },
  {
    "MOLECULE": "CCn1c(-c2nonc2N)nc2c(-c3cccc(NC(=O)Nc4cccc(C#N)c4)c3)ncc(OCCCN)c21",
    "growth inhibition [%]": 92
  }
]
